experiment: Single dose PK, phase 1, healthy Japanese men; type: in vivo, human; settings: male, human, plasma, sc, 0.25 mg, single 2-hour SC INF 0.25 mg (plasma N = 1), read-out: Tmax, median (range)
Where a SMILES comes first, the peptide text is derived from it. [ ]: non-standard residue; d: D form. Arg(Me) = CNC(=N)NCCC[C@H](N)C(=O)O; Hyp = O=C(O)[C@@H]1C[C@@H](O)CN1; azaGly = NNC(=O)O
Measured quantity: Tmax

Give the measured Tmax of CC(=O)O.CNC(=N)NCCC[C@H](NC(=O)[C@H](CC(C)C)NC(=O)NNC(=O)[C@H](Cc1ccccc1)NC(=O)[C@@H](NC(=O)[C@H](CC(N)=O)NC(=O)[C@@H]1C[C@@H](O)CN1C(=O)[C@@H](Cc1ccc(O)cc1)NC(C)=O)[C@@H](C)O)C(=O)N[C@@H](Cc1c[nH]c2ccccc12)C(N)=O [API-MA] (Ac-[dY][Hyp]NTF[azaGly]L[Arg(Me)]W-NH2) .
2.25 h

###

assay: Single dose PK, phase 1, healthy European men; assay type: in vivo, human; details: male, human, plasma, single SC 0.001 mg, geometric mean
Where a SMILES comes first, the peptide text is derived from it. [ ]: non-standard residue; d: D form. Arg(Me) = CNC(=N)NCCC[C@H](N)C(=O)O; Hyp = O=C(O)[C@@H]1C[C@@H](O)CN1; azaGly = NNC(=O)O
Measured quantity: Cmax (ng/mL)
Quick note: give the figure in ng/mL, leave out the unit.

Give the measured Cmax of CC(=O)O.CNC(=N)NCCC[C@H](NC(=O)[C@H](CC(C)C)NC(=O)NNC(=O)[C@H](Cc1ccccc1)NC(=O)[C@@H](NC(=O)[C@H](CC(N)=O)NC(=O)[C@@H]1C[C@@H](O)CN1C(=O)[C@@H](Cc1ccc(O)cc1)NC(C)=O)[C@@H](C)O)C(=O)N[C@@H](Cc1c[nH]c2ccccc12)C(N)=O [API-MA] (Ac-[dY][Hyp]NTF[azaGly]L[Arg(Me)]W-NH2) .
0.0133

###

experiment: Single dose PK, phase 1, healthy European men; format: in vivo, human; details: male, human, plasma, subcutaneous, 3 mg, 2-hour INF 3 mg, read-out: T1/2 (median) (converted)
Where a SMILES comes first, the peptide text is derived from it. [ ]: non-standard residue; d: D form. Arg(Me) = CNC(=N)NCCC[C@H](N)C(=O)O; Hyp = O=C(O)[C@@H]1C[C@@H](O)CN1; azaGly = NNC(=O)O
Measured quantity: half-life (h)
Quick note: give the figure in h, leave out the unit.

Give the measured half-life of CC(=O)O.CNC(=N)NCCC[C@H](NC(=O)[C@H](CC(C)C)NC(=O)NNC(=O)[C@H](Cc1ccccc1)NC(=O)[C@@H](NC(=O)[C@H](CC(N)=O)NC(=O)[C@@H]1C[C@@H](O)CN1C(=O)[C@@H](Cc1ccc(O)cc1)NC(C)=O)[C@@H](C)O)C(=O)N[C@@H](Cc1c[nH]c2ccccc12)C(N)=O [API-MA] (Ac-[dY][Hyp]NTF[azaGly]L[Arg(Me)]W-NH2) .
5.25

###

experiment: Single dose PK, phase 1, healthy European men; assay type: in vivo, human; conditions: male, human, plasma, subcutaneous, 2-hour INF 6 mg, geometric mean
Where a SMILES comes first, the peptide text is derived from it. [ ]: non-standard residue; d: D form. Arg(Me) = CNC(=N)NCCC[C@H](N)C(=O)O; Hyp = O=C(O)[C@@H]1C[C@@H](O)CN1; azaGly = NNC(=O)O
Measured quantity: AUC(0-inf) (ng·h/mL)
Quick note: give the figure in ng·h/mL, leave out the unit.

Give the measured AUC(0-inf) of CC(=O)O.CNC(=N)NCCC[C@H](NC(=O)[C@H](CC(C)C)NC(=O)NNC(=O)[C@H](Cc1ccccc1)NC(=O)[C@@H](NC(=O)[C@H](CC(N)=O)NC(=O)[C@@H]1C[C@@H](O)CN1C(=O)[C@@H](Cc1ccc(O)cc1)NC(C)=O)[C@@H](C)O)C(=O)N[C@@H](Cc1c[nH]c2ccccc12)C(N)=O [API-MA] (Ac-[dY][Hyp]NTF[azaGly]L[Arg(Me)]W-NH2) .
318

###

experiment: Single dose PK, phase 1, healthy European men; format: in vivo, human; settings: male, human, plasma, single SC 0.001 mg, read-out: Tmax (median)
Where a SMILES comes first, the peptide text is derived from it. [ ]: non-standard residue; d: D form. Arg(Me) = CNC(=N)NCCC[C@H](N)C(=O)O; Hyp = O=C(O)[C@@H]1C[C@@H](O)CN1; azaGly = NNC(=O)O
Measured quantity: Tmax

Give the measured Tmax of CC(=O)O.CNC(=N)NCCC[C@H](NC(=O)[C@H](CC(C)C)NC(=O)NNC(=O)[C@H](Cc1ccccc1)NC(=O)[C@@H](NC(=O)[C@H](CC(N)=O)NC(=O)[C@@H]1C[C@@H](O)CN1C(=O)[C@@H](Cc1ccc(O)cc1)NC(C)=O)[C@@H](C)O)C(=O)N[C@@H](Cc1c[nH]c2ccccc12)C(N)=O [API-MA] (Ac-[dY][Hyp]NTF[azaGly]L[Arg(Me)]W-NH2) .
30 min

###

test: Single dose PK, phase 1, healthy Japanese men; type: in vivo, human; conditions: male, human, plasma, sc, 0.25 mg, single 2-hour SC INF 0.25 mg (plasma N = 1)
Where a SMILES comes first, the peptide text is derived from it. [ ]: non-standard residue; d: D form. Arg(Me) = CNC(=N)NCCC[C@H](N)C(=O)O; Hyp = O=C(O)[C@@H]1C[C@@H](O)CN1; azaGly = NNC(=O)O
Measured quantity: AUC(0-inf) (µg·h/mL)
Quick note: give the figure in µg·h/mL, leave out the unit.

Give the measured AUC(0-inf) of CC(=O)O.CNC(=N)NCCC[C@H](NC(=O)[C@H](CC(C)C)NC(=O)NNC(=O)[C@H](Cc1ccccc1)NC(=O)[C@@H](NC(=O)[C@H](CC(N)=O)NC(=O)[C@@H]1C[C@@H](O)CN1C(=O)[C@@H](Cc1ccc(O)cc1)NC(C)=O)[C@@H](C)O)C(=O)N[C@@H](Cc1c[nH]c2ccccc12)C(N)=O [API-MA] (Ac-[dY][Hyp]NTF[azaGly]L[Arg(Me)]W-NH2) .
0.0133

###

Assay: Pharmacokinetics in monkeys after SC and IV administration
Settings: monkey, in vivo, sc, 1 mg/kg
Source text: The PK of API-MA was studied in monkeys after SC and IV administration.
Where a SMILES comes first, the peptide text is derived from it. [ ]: non-standard residue; d: D form. Arg(Me) = CNC(=N)NCCC[C@H](N)C(=O)O; Hyp = O=C(O)[C@@H]1C[C@@H](O)CN1; azaGly = NNC(=O)O
Measured quantity: Cmax (ng/mL)
Quick note: give the figure in ng/mL, leave out the unit.

Give the measured Cmax of CNC(=N)NCCC[C@H](NC(=O)[C@H](CC(C)C)NC(=O)NNC(=O)[C@H](Cc1ccccc1)NC(=O)[C@@H](NC(=O)[C@H](CC(N)=O)NC(=O)[C@@H]1C[C@@H](O)CN1C(=O)[C@@H](Cc1ccc(O)cc1)NC(C)=O)[C@@H](C)O)C(=O)N[C@@H](Cc1c[nH]c2ccccc12)C(N)=O [Compound 1] (Ac-[dY][Hyp]NTF[azaGly]L[Arg(Me)]W-NH2) .
1320

###

test: Pharmacokinetics in dogs after SC and IV administration; conditions: dog, in vivo, iv, 1 mg/kg, T½ β
Where a SMILES comes first, the peptide text is derived from it. [ ]: non-standard residue; d: D form. Arg(Me) = CNC(=N)NCCC[C@H](N)C(=O)O; Hyp = O=C(O)[C@@H]1C[C@@H](O)CN1; azaGly = NNC(=O)O
Measured quantity: half-life

Give the measured half-life of CNC(=N)NCCC[C@H](NC(=O)[C@H](CC(C)C)NC(=O)NNC(=O)[C@H](Cc1ccccc1)NC(=O)[C@@H](NC(=O)[C@H](CC(N)=O)NC(=O)[C@@H]1C[C@@H](O)CN1C(=O)[C@@H](Cc1ccc(O)cc1)NC(C)=O)[C@@H](C)O)C(=O)N[C@@H](Cc1c[nH]c2ccccc12)C(N)=O [Compound 1] (Ac-[dY][Hyp]NTF[azaGly]L[Arg(Me)]W-NH2) .
1.1 h

###

test: Multiple-dose PK, 2-hour SC infusion once daily for 14 days, Japanese prostate cancer patients; format: in vivo, human; conditions: male, human, in vivo, days 1 and 14, both doses (0.5 and 1.0 mg/day); read-out: Mean T1/2
Where a SMILES comes first, the peptide text is derived from it. [ ]: non-standard residue; d: D form. Arg(Me) = CNC(=N)NCCC[C@H](N)C(=O)O; Hyp = O=C(O)[C@@H]1C[C@@H](O)CN1; azaGly = NNC(=O)O
Measured quantity: half-life

Give the measured half-life of CC(=O)O.CNC(=N)NCCC[C@H](NC(=O)[C@H](CC(C)C)NC(=O)NNC(=O)[C@H](Cc1ccccc1)NC(=O)[C@@H](NC(=O)[C@H](CC(N)=O)NC(=O)[C@@H]1C[C@@H](O)CN1C(=O)[C@@H](Cc1ccc(O)cc1)NC(C)=O)[C@@H](C)O)C(=O)N[C@@H](Cc1c[nH]c2ccccc12)C(N)=O [API-MA] (Ac-[dY][Hyp]NTF[azaGly]L[Arg(Me)]W-NH2) .
180 to 240 min
